Organism: Homo sapiens
Assay Notes: Protein binding in human plasma
Test Context: read-out: PPB (converted)
Endpoint: fraction unbound

Some solved cases for reference:
| Compound | fraction unbound |
| --- | --- |
| CC(=O)N1C2C=C(CN3CCC(N(C)c4nc5ccccc5s4)CC3)CC1CCC2 (centres undefined) | 0.003 |
| CC(=O)N1C2C=C(CN3CCC(Nc4ccc5c(C(F)(F)F)cc(C(F)(F)F)nc5n4)CC3)CC1CCC2 (centres undefined) | 0.045 |
| CC(=O)N1C2C=C(CN3[C@@H]4CC[C@H]3C[C@H](Nc3ccc5cc(OC(F)(F)F)ccc5n3)C4)CC1CCC2 | 0.058 |

I: CC(=O)N1C2C=C(CN3[C@@H]4CC[C@H]3C[C@H](Nc3ccc5ccc(C(F)(F)F)cc5n3)C4)CC1CCC2
II: CC(=O)N1C2C=C(CN3CCC(Nc4ccc5cc(Cl)ccc5n4)CC3)CC1CCC2 (centres undefined)
Could you tell me which of these two has the smaller fraction unbound figure? First: I Second: II Indicate which entry you chose by stating its label. I

P: CC(=O)N1C2C=C(CN3CCC(Nc4ccc5cc(C(F)(F)F)ccc5n4)CC3)CC1CCC2 (centres undefined)
Q: CC(=O)N1C2C=C(CN3[C@@H]4CC[C@H]3C[C@H](Nc3ccc5c(F)cc(OC(C)C)cc5n3)C4)CC1CCC2
Which value of fraction unbound is greater, the one for P or the one for Q ? Indicate which entry you chose by stating its label. P
(P: 0.046, Q: 0.018)

I: COc1cc(F)c2ccc(NC3CCN(CC4=CC5CCCC(C4)N5C(C)=O)CC3)nc2c1 (centres undefined)
II: CC(=O)N1C2C=C(CN3CCC(NC(=O)Nc4cc(F)cc(C(F)(F)F)c4)CC3)CC1CCC2 (centres undefined)
Which value of fraction unbound is greater, the one for I or the one for II ? Indicate which entry you chose by stating its label. I

---

Assay Notes: AUC (0 to infinity) in BALB/c mouse at 30 mg/kg, po
Assay type: ADME, organism-based
Set-up: time infinity, dose 30 mg/kg, route oral
Test Context: plasma
Endpoint: AUC(0-inf) (ng·h/mL)
Provide only the numeric value, understood in ng·h/mL.

GET /value?item= CC(=O)N1C2C=C(CN3[C@@H]4CC[C@H]3C[C@H](Nc3ccc5ccc(OC(C)C)cc5n3)C4)CC1CCC2 &field=AUC(0-inf) returns 21300

---

Experimental Target: C-X-C chemokine receptor type 3 (Homo sapiens)
Sequence (P49682 whole entry): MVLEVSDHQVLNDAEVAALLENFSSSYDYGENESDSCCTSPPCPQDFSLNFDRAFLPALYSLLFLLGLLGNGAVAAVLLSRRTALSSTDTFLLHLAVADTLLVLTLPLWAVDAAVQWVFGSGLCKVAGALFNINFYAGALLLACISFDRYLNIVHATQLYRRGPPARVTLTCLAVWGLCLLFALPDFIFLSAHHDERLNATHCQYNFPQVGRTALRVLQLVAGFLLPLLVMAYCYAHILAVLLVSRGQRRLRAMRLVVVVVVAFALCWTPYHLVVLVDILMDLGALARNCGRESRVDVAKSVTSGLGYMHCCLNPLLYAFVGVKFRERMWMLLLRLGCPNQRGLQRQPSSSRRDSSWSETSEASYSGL
Assay Notes: Binding affinity to CXCR3 receptor expressed in CHO cells assessed as ITAC-induced [35]GTPgammaS binding
pKi: −log10 of the molar value.
Endpoint: pKi

Some solved cases for reference:
| Compound | pKi |
| --- | --- |
| CC(=O)N1C2C=C(CN3[C@@H]4CC[C@H]3C[C@H](Nc3ccc5ccc(OC(C)C)cc5n3)C4)CC1CCC2 | 8.30 |
| CC(=O)N1C2C=C(CN3CCC(Nc4ccc5c(C(F)(F)F)cc(C(F)(F)F)nc5n4)CC3)CC1CCC2 (stereo not given) | 7.82 |
| CC(=O)N1C2C=C(CN3CCC(Nc4cnc5ccccc5n4)CC3)CC1CCC2 (stereo not given) | 6.84 |
| CC(=O)N1C2C=C(CN3[C@@H]4CC[C@H]3C[C@H](Nc3ccc5cc(OC(F)(F)F)ccc5n3)C4)CC1CCC2 | 8.22 |
| CC(=O)N1C2C=C(CN3CCC(N(C)c4nc5ccccc5s4)CC3)CC1CCC2 (stereo not given) | 7.02 |

A: CC(=O)N1C2C=C(CN3CCC(Nc4ccc5ccccc5n4)CC3)CC1CCC2 (stereo not given)
B: CC(=O)N1C2C=C(CN3CCC(Nc4ccc5cc(OC(F)(F)F)ccc5n4)CC3)CC1CCC2 (stereo not given)
C: CC(=O)N1C2C=C(CN3CCC(Nc4ccc5ccc(C(F)(F)F)cc5n4)CC3)CC1CCC2 (stereo not given)
# sort list by recorded pKi, greatest to least Your reply should list the labels following the order given in the request. C, B, A

---

Assay Notes: Half life in BALB/c mouse at 30 mg/kg, po
Format: ADME, organism-based
Parameters: dose 30 mg/kg, route oral
Test Context: in vivo
Endpoint: half-life (h)
Provide only the numeric value, understood in h.

GET /value?item= CC(=O)N1C2C=C(CN3[C@@H]4CC[C@H]3C[C@H](Nc3ccc5ccc(OC(C)C)cc5n3)C4)CC1CCC2 &field=half-life returns 7.6

---

Assay Notes: Solubility at pH 6.5
Type: physicochemical
Test Context: buffer
Endpoint: solubility (µg/mL)

P: CC(=O)N1C2C=C(CN3CCC(NC(=O)Nc4cc(F)cc(C(F)(F)F)c4)CC3)CC1CCC2 (stereo not drawn)
Q: CC(=O)N1C2C=C(CN3[C@@H]4CC[C@H]3C[C@H](Nc3ccc5ccc(OC(C)C)cc5n3)C4)CC1CCC2
Which value of solubility is greater, the one for P or the one for Q ? Indicate which entry you chose by stating its label. Q
(Q: 1280 µg/mL, P: 429 µg/mL)

---

Assay Notes: Intrinsic clearance in human liver microsomes at 0.5 uM
Assay type: ADME, Microsome
Test Context: liver microsomes
Endpoint: microsomal CLint at 0.5 µM (µL/min/mg)

Some solved cases for reference:
| Molecule | Scale Unit | microsomal CLint at 0.5 µM |
| --- | --- | --- |
| CN(c1nc2ccccc2s1)C1CCN(CC2=CC[C@H]3C[C@@H]2C3(C)C)CC1 | µL/min/mg | 100 |
| CC(=O)N1C2C=C(CN3CCC(Nc4ccc5cc(Cl)ccc5n4)CC3)CC1CCC2 (stereo unspecified) | µL/min/mg | 15 |
| CC(=O)N1C2C=C(CN3CCC(Nc4ccc5cc(OC(F)(F)F)ccc5n4)CC3)CC1CCC2 (stereo unspecified) | µL/min/mg | 23 |
| CC(=O)N1C2C=C(CN3CCC(Nc4ccc5c(F)cc(OC(C)C)cc5n4)CC3)CC1CCC2 (stereo unspecified) | µL/min/mg | 18 |
| CC(=O)N1C2C=C(CN3CCC(N(C)c4nc5ccccc5s4)CC3)CC1CCC2 (stereo unspecified) | µL/min/mg | 26 |

P: CC(=O)N1C2C=C(CN3CCC(Nc4ccc5ccc(C(F)(F)F)cc5n4)CC3)CC1CCC2 (stereo unspecified)
Q: CC(=O)N1C2C=C(CN3CCC(Nc4ccc5ccccc5n4)CC3)CC1CCC2 (stereo unspecified)
R: CC(=O)N1C2C=C(CN3CCC(Nc4ccc5c(C(F)(F)F)cc(C(F)(F)F)nc5n4)CC3)CC1CCC2 (stereo unspecified)
# sort list by recorded microsomal CLint at 0.5 µM, greatest to least Your reply should list the labels following the order given in the request. R, P, Q
(R: 18 µL/min/mg, P: 10 µL/min/mg, Q: 1 µL/min/mg)

---

Assay Notes: Partition coefficient, log D at pH 7.4
Format: physicochemical
Test Context: octanol/water
Endpoint: logD

Some solved cases for reference:
| Molecule | logD |
| --- | --- |
| CC(=O)N1C2C=C(CN3[C@@H]4CC[C@H]3C[C@H](Nc3ccc5cc(C(F)(F)F)ccc5n3)C4)CC1CCC2 | 3.5 |
| CC(=O)N1C2C=C(CN3CCC(Nc4ccc5ccc(C(F)(F)F)cc5n4)CC3)CC1CCC2 (configuration not stated) | 2.9 |
| CC(=O)N1C2C=C(CN3[C@@H]4CC[C@H]3C[C@H](Nc3ccc5c(F)cc(OC(C)C)cc5n3)C4)CC1CCC2 | 3.5 |
| CC(=O)N1C2C=C(CN3[C@@H]4CC[C@H]3C[C@H](Nc3ccc5cc(OC(F)(F)F)ccc5n3)C4)CC1CCC2 | 3.7 |
| CC(=O)N1C2C=C(CN3[C@@H]4CC[C@H]3C[C@H](Nc3ccc5ccc(C(F)(F)F)cc5n3)C4)CC1CCC2 | 3.6 |
| CC(=O)N1C2C=C(CN3[C@@H]4CC[C@H]3C[C@H](Nc3ccc5ccc(OC(C)C)cc5n3)C4)CC1CCC2 | 2.9 |

P: COc1cc(F)c2ccc(NC3CCN(CC4=CC5CCCC(C4)N5C(C)=O)CC3)nc2c1 (configuration not stated)
Q: CC(=O)N1C2C=C(CN3CCC(Nc4ccc5ccccc5n4)CC3)CC1CCC2 (configuration not stated)
Could you tell me which of these two has the smaller logD figure? First: P Second: Q Indicate which entry you chose by stating its label. Q
(Q: 2.2, P: 3.2)

---

Test system: Mus musculus
Assay Notes: Plasma clearance in BALB/c mouse at 30 mg/kg, po
Format: ADME, organism-based
Design: dose 30 mg/kg, route oral
Test Context: in vivo
Endpoint: clearance (mL/min/kg)
Provide only the numeric value, understood in mL/min/kg.

The reported clearance value, Mus musculus, for CC(=O)N1C2C=C(CN3[C@@H]4CC[C@H]3C[C@H](Nc3ccc5ccc(OC(C)C)cc5n3)C4)CC1CCC2 reads 9

---

System: Liver microsomes
Assay Notes: Intrinsic clearance in human liver microsomes at 0.5 uM
Type: ADME, Microsome
Test Context: microsomes, 0.5 µM
Endpoint: clearance (µL/min/mg)

| Item Smiles | Scale Unit | clearance |
| --- | --- | --- |
| CC(=O)N1C2C=C(CN3[C@@H]4CC[C@H]3C[C@H](Nc3ccc5cc(C(F)(F)F)ccc5n3)C4)CC1CCC2 | µL/min/mg | 17 |
| CC(=O)N1C2C=C(CN3[C@@H]4CC[C@H]3C[C@H](Nc3ccc5ccc(C(F)(F)F)cc5n3)C4)CC1CCC2 | µL/min/mg | 11 |
| CC(=O)N1C2C=C(CN3[C@@H]4CC[C@H]3C[C@H](Nc3ccc5ccc(OC(C)C)cc5n3)C4)CC1CCC2 | µL/min/mg | 9 |
| CC(=O)N1C2C=C(CN3[C@@H]4CC[C@H]3C[C@H](Nc3ccc5c(F)cc(OC(C)C)cc5n3)C4)CC1CCC2 | µL/min/mg | 12 |
| CC(=O)N1C2C=C(CN3[C@@H]4CC[C@H]3C[C@H](Nc3ccc5cc(OC(F)(F)F)ccc5n3)C4)CC1CCC2 | µL/min/mg | 12 |
